Source: the RNAGym collection of RNA variant scans (doi:10.7554/elife.90254)

B1: LINE1-full (parent)
chain: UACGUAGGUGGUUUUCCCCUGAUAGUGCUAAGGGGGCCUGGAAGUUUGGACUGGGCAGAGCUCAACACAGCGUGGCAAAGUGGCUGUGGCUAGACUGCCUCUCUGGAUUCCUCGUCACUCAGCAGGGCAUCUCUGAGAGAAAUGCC

- Variants of: B1
- assay summary: self-cleavage, relative activity (ratio to wild type); higher = more cleavage; in vitro, sequencing; the parent is a self-cleaving ribozyme
recorded metric: self-cleavage
Lab note: record the figure alone, no unit after it.

Example entries begin here.
Task item: Kindly indicate its recorded self-cleavage. Item: UACGUAGGUGGUUUUCCCCUGAUAGUGCUAAGGGGGCCUGGAAGUUUGGACUGGGCAGAGCUCGACACAGCGUGGCAAAGUGGCUGUGGCUAGACUGCCUCUCUGGAUUCCUCGUCACUCAGCAGGGCAUCUCUGAGAGACAUGCC [A64G A141C]
Reply: 0.11

Task item: Give recorded self-cleavage. UACGUAGGUGGUUUUCCCCUGAUAGUGCUAAGGGGGCCUGGAAGUUUGGACUGAGCAGAGCUCAACACAGCGUGGCAAAGUGGCUGUGGCUAGACUGCCUCUCUGGAUUCCUCGUCACUCAGCAGGGCAUCUCUGAGAGAAAUGUC [G54A C145U]
Reply: 0.54

Task item: Give the value of self-cleavage reported for the following: UACGUAGGUGGUUUUCCCCAGAUAGUGCUAAGGGGGCCUGGAAGUUUGGACUGGGCAGAGCUCAACACAGCGUGGCAAAGUGGCCGUGGCUAGACUGCCUCUCUGGAUUCCUCGUCACUCAGCAGGGCAUCUCUGAGAGAAAUGCC [U20A U85C]
Reply: 0.09

Continuing:
Task item: In one line, give reported self-cleavage of the entry UACGUAGGUGGUCUUCCCCUGAUAGUGCUAAGGGGGCCUGGAAGUUUGGACUGGGCAGAGCUCAACACAGCGUGGCAAAGUGGCGGUGGCUAGACUGCCUCUCUGGAUUCCUCGUCACUCAGCAGGGCAUCUCUGAGAGAAAUGCC [U13C U85G] .
Reply: 0.29

Task item: Give reported self-cleavage value for UACGUAGGUGGUUUUCCCCUGAUAGUACUUAGGGGGCCUGGAAGUUUGGACUGGGCAGAGCUCAACACAGCGUGGCAAAGUGGCUGUGGCUAGACUGCCUCUCUGGAUUCCUCGUCACUCAGCAGGGCAUCUCUGAGAGAAAUGCC [G27A A30U]
Reply: 1.58

Task item: Respond only with self-cleavage recorded for UACGUAGGUGGUUUUCCCCUGAUAGUGCAAAGGGGGCCUGGAAGUUUGGACUGGGCAGAGCUCAACACAGCGUGGCAAAGUGGCAGUGGCUAGACUGCCUCUCUGGAUUCCUCGUCACUCAGCAGGGCAUCUCUGAGAGAAAUGCC [U29A U85A]
Reply: 0.12

Task item: Assign self-cleavage to the following record: UACGCAGGUGGUUUUCCCCUGAUAGUGCUAAGGGGGCCUGGAAGUUUGGACUGGGCAGAGCUCAACACAGCGUGGCAAAGUGGCUGUGGCUAGACUGCCUCUCUGGAUUCCUCGUCACUCAGCAGGGCAUCCCUGAGAGAAAUGCC [U5C U132C]
Reply: 0.86

Task item: Return the recorded self-cleavage value; entry: UACGUAGGUGGCUUUCCCCUGAUAGUGCUAAGGGGGCCUGGAAGUUUGGACUGGGCAGAGCUCAACACAGCGUGGCAUAGUGGCUGUGGCUAGACUGCCUCUCUGGAUUCCUCGUCACUCAGCAGGGCAUCUCUGAGAGAAAUGCC [U12C A78U]
Reply: 1.52

Task item: Specify measured self-cleavage for UACGUAGGUGGUUUUCCCCUGAUAGUGCUAAGGGGGCCUGGAAGUUUGGACUGGGCAGAGCUCAGCACAGCGUGGCAAAGUGGCUGUGGCUAGACUGCCUCUCUGGAUUCCUCGUCACUCAGCAGGGCAUCUCUGAGAGAAAUGGC [A65G C145G] .
Reply: 0.02

Task item: Provide self-cleavage value for the following variant: UACGUAGGUGGUUUUCCCCUGAUAGUGCUAAGGGGGCCUGGAAGUUUGGACUGGGCAGAGCUCAGCACAGCGUGGCAAAGUGGCUGUGGCUAGACUGCCUCUCUGGAUUCCUCGUCACUCAGCAGGGCAUCUCUGAGAGAAAAGCC [A65G U143A]
Reply: 0.06

Task item: Give reported self-cleavage value for UACGUAGGUGGUUUUCCCCUGAUAGUGCUAAGGGGGCCUGGAAGUUUGGACUGGGCAGAGCUCAACACAGCGUGGCAAAGUGGCUGUGGCUAGACUGCCUCUCUGGAUUCCUCGUCACUCGGCAGGGCAUCUCUAAGAGAAAUGCC [A121G G135A]
Reply: 2.36

Task item: Consider the variant UACGUAGGUGGUUUUCCCCUGAUAGUGCUAAGGGGGCCUGGAAGUUUGGACUGGGCAGGGCUCAGCACAGCGUGGCAAAGUGGCUGUGGCUAGACUGCCUCUCUGGAUUCCUCGUCACUCAGCAGGGCAUCUCUGAGAGAAAUGCC [A59G A65G] . State its measured self-cleavage.
Reply: 0.11

Task item: In one line, give reported self-cleavage of the entry UACGUAGGUGGUUUUCCCCUGAUAGUGCUAAGGGGGCCUGGAAGUUUGGACUGGGCAGAGCUCAACACAGCGUGGCAAAGUGGCUGAGGCUAGACUGCCUCUCUGGAUUCCUCGUCACUCAGCAGGUCAUCUCUGAGAGAAAUGCC [U87A G127U] .
Reply: 0.06

Task item: Identify measured self-cleavage associated with UACGUAGGUGGUUUUCCCCUGAUAGUGCUAAGGGGGCCUGGAAGUUUGGACUGGGCAGAGCUCAACACAGCGUGGCAAAGUGGCUGCGGCUAGACUGCCUCUCUGGAUUCCUCGUCACUCAGCAGGGCAUCUCUGAGAGAAAUGAC [U87C C145A]
Reply: 0.27

Task item: Please look at this variant and report its self-cleavage: UACGUAGGUGGUUUUCCCCUGAUAGUGCUAAGGGGGCCUGGAAGUUUAGACUGGGCAGAGCUCAACACAGCGUGGCAAAGUGGCUGUGGCUAGACUGCCUCUCUGGAUUCCUCGUCACUCAGCAGGGCUUCUCUGAGAGAAAUGCC [G48A A129U]
Reply: 1.13

Task item: Kindly indicate its recorded self-cleavage. Item: UACGUAGGUGGUUUACCCCUGAUAGUGCUAAGGGGGCCUGGAAGUUUGGACUGGGCAGAGCUCAACACAGCGUGGCAAAGAGGCUGUGGCUAGACUGCCUCUCUGGAUUCCUCGUCACUCAGCAGGGCAUCUCUGAGAGAAAUGCC [U15A U81A]
Reply: 1.56

Task item: Dear colleague, please send me the reported self-cleavage for UACGUAGGUGGUUUUCCCCUGUUAGUGCUAAGGGGGCCUGGAGGUUUGGACUGGGCAGAGCUCAACACAGCGUGGCAAAGUGGCUGUGGCUAGACUGCCUCUCUGGAUUCCUCGUCACUCAGCAGGGCAUCUCUGAGAGAAAUGCC [A22U A43G] when you can.
Reply: 1.01
